assay.method.text: Solubility of the compound
Assay type: physicochemical
The reader will find reported solubility values listed item by item below.
Give the quantity in µg/mL, number only.

OCCNc1cc(-c2n[nH]c3cnccc23)nc(C(F)(F)F)c1 = 113

Now turn to the next molecule.
Lookup: Which measured solubility value corresponds to `FC(F)(F)c1cccc(-c2n[nH]c3cnccc23)n1` ?
Found: 12

----------
tested.target: DNA ligase (Staphylococcus aureus)
assay.method.text: Inhibition of C-terminal 6xHis-tagged full length recombinant Staphylococcus aureus DNA ligase (1 to 312) expressed in Escherichia coli BL21 (DE3) using oligonucleotide as substrate after 10 mins by TR-FRET assay
measured.metric: IC50 (µM)
Give the quantity in µM, number only.

Clc1cccc(-c2nc[nH]n2)n1 = 17

Lookup: Which measured IC50 value corresponds to `FC(F)(F)c1cccc(-c2nc[nH]n2)n1` ?
Found: 16

Lookup: Also `OCCNc1cc(-c2n[nH]c3cnccc23)nc(C(F)(F)F)c1` ?
Found: 0.23

Lookup: Also `c1ccc(-c2nnc[nH]2)nc1` ?
Found: 300

Lookup: Also `FC(F)(F)c1cccc(-c2n[nH]c3cnccc23)n1` ?
Found: 0.22

Lookup: Also `OCCNc1cc(C(F)(F)F)nc(-c2n[nH]c3cnccc23)n1` ?
Found: 0.015

Lookup: Also `COc1cccc(-c2nnc[nH]2)n1` ?
Found: 130

----------
tested.target: DNA ligase (Staphylococcus aureus, UniProt Q9AIU7)
Sequence (Q9AIU7 whole entry): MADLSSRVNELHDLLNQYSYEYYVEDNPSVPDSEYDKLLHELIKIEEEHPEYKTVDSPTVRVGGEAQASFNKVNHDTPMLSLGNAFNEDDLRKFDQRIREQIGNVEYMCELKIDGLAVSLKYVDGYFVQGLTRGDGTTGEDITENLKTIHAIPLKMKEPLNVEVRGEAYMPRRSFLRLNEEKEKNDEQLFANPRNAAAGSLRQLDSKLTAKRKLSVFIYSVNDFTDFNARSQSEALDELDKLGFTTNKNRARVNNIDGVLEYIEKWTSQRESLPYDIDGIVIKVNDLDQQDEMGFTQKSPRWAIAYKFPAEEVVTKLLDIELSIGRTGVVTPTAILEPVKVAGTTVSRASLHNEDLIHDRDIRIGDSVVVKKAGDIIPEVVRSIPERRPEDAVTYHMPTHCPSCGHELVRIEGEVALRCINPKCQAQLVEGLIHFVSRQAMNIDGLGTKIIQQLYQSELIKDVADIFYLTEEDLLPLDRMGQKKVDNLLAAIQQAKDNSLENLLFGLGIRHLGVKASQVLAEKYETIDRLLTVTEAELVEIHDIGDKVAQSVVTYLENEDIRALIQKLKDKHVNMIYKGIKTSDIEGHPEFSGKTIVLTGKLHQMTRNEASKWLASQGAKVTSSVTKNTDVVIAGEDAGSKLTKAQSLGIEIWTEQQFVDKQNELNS
assay.method.text: Inhibition of C-terminal 6xHis-tagged full length recombinant Staphylococcus aureus DNA ligase (1 to 312) expressed in Escherichia coli BL21 (DE3) using oligonucleotide as substrate after 10 mins by TR-FRET assay
The reader will find reported IC50 values listed item by item below.
The reply should consist of the numeric value with the unit placed after it.

Sample answers from the record:
CC(F)(F)c1cccc(-c2nnc[nH]2)n1 = 21 µM
Cc1cccc(-c2nnc[nH]2)n1 = 140 µM

Lookup: Which measured IC50 value corresponds to `c1cc(-c2nnc[nH]2)nc(C2CCC2)c1` ?
Found: 53 µM

----------
assay.method.text: Inhibition of Escherichia coli LigA
measured.metric: pIC50
In simple prose, pIC50 is minus the logarithm base ten of a concentration in moles per litre.

Lookup: Which measured pIC50 value corresponds to `OCCNc1cc(C(F)(F)F)nc(-c2n[nH]c3cnccc23)n1` ?
Found: 7.01
